tested on: JJN-3 (NIK translocated) multiple myeloma cells; assay: Antiproliferative activity on JJN-3 multiple myeloma cells (CellTiter-Glo, 96 hr), Biological Assay C; assay type: cell-based, human; conditions: Homo sapiens, JJN-3, 96 h, JJN-3 (NIK translocated) cells, averaged values, read-out: JJN-3 Proliferation inhibition (IC50 (nM))
MEASUREMENT_LABEL: IC50 (nM)

# count of solved cases: 4
Cc1ccc(C#N)cc1Nc1nccc(-c2cc(C#N)c3c(c2)C(C)(CO)CN3)n1 (stereo not shown); 255
CC1(C)CNc2c(C#N)cc(-c3ccnc(Nc4cc(Cl)ccc4OC4CCN(C5CC5)CC4)n3)cc21; 380
Cc1cc(C(=O)NCC2COC2)c(F)cc1Nc1nccc(-c2cc(C#N)c3c(c2)[C@@](C)(CO)CN3)n1; 39
Cc1cc(Br)c(Cl)cc1Nc1nccc(-c2cc(C#N)c3c(c2)C(C)(CO)CN3)n1 (stereo not shown); 363

I: COc1cc(C(=O)NC2CC(F)(F)C2)c(Cl)cc1Nc1nccc(-c2cc(C#N)c3c(c2)C(C)(C)CN3)n1
II: COc1cc(N2CCN(C3CC3)CC2)c(Cl)cc1Nc1nccc(-c2cc(C#N)c3c(c2)C(C)(C)CN3)n1
Task: Two entries are listed, I and II . Which one carries the higher IC50? Mark your selection by writing its label.
Output: I
(I: 933 nM, II: 105 nM)
